Reference for the values: PubChem BioAssay (NCI)

Give measured GI50 for each item. Keep answers brief.

Record COc1ccc2nc(NC(=O)c3cccnc3Nc3cc(OC)c(OC)c(OC)c3)sc2c1 ; system ACHN renal; GI50 = 6470 nM

Record CC(C)COC(=O)c1ccc2[nH]c(O)c(C=Nc3ccc(S(N)(=O)=O)cc3)c2c1 ; system ACHN renal; GI50 = 885 nM

Record Cc1ccc(-c2nc(N3CCCNCC3)c3oc(-c4ccc(C)cc4)nc3n2)cc1 ; system ACHN renal; GI50 = 1750 nM

Record Cc1cccc2c(N)c3ccccc3nc12 ; system ACHN renal; GI50 = 561 nM

Record Cc1nc(Nc2nc3ccccc3o2)nc(-c2cccc([N+](=O)[O-])c2)c1C(=O)Nc1ccc(F)c(Cl)c1 ; system ACHN renal; GI50 = 2420 nM

Record CO[C@H]1CC(c2ccc[nH]2)=N[C@]12O[C@@H](C)C[C@@H]1CCCCCCCc3ccc([nH]3)[C@H]12 ; system ACHN renal; GI50 = 1220 nM

Record O=C(Nc1ccc(I)cc1F)c1cc(Cl)ccc1O ; system ACHN renal; GI50 = 487 nM

Record CCN(CC)CCOc1ccc(C(=O)/C=C\c2ccc(Cl)cc2Cl)cc1 ; system ACHN renal; GI50 = 4730 nM

Record C=CCCCc1ccc(C(O)CCCCCCCCCCCC)o1 (stereo unspecified) ; system ACHN renal; GI50 = 16800 nM

Record COc1ccc(C2=CC(c3ccc(OC)c(OC)c3)c3c(c4ccccc4oc3=O)O2)cc1OC (stereo unspecified) ; system ACHN renal; GI50 = 3030 nM

Record COc1cc2c3c(n(CCCN=[N+]=[N-])c(=O)c2cc1OC)-c1ccc(N(C)C)cc1C3=O ; system ACHN renal; GI50 = > 100000 nM
